B1: Ribonuclease, P00648 (parent)
chain: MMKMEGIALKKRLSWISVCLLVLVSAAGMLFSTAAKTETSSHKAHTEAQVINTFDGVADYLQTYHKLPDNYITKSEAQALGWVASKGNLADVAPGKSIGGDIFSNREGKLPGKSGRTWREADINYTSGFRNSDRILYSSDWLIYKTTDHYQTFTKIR

Variants of: B1
Conditions: Bacillus amyloliquefaciens; pH 6.3; 25 °C; Urea; Fluorescence; MES 50 micro M; reversible: yes; structure 1BNI; whole UniProt chain shown
ddG of mutation (higher = less stable) values, listed per item
# number only, unit kcal/mol dropped from output

V83T    1.15
V57T    2.48
N124A    1.66
I72V    1.12
Y64A    2.43

-- ask Tell us which ddG of mutation (higher = less stable) value is on record for L61A
-- reply 4.32

-- ask Tell us which ddG of mutation (higher = less stable) value is on record for E76G
-- reply 1.76

-- ask Tell us which ddG of mutation (higher = less stable) value is on record for T73A
-- reply 1.93

-- ask Tell us which ddG of mutation (higher = less stable) value is on record for V57A
-- reply 3.4

-- ask Tell us which ddG of mutation (higher = less stable) value is on record for I98V
-- reply 1.8

-- ask Tell us which ddG of mutation (higher = less stable) value is on record for V92T
-- reply 2.32

-- ask Tell us which ddG of mutation (higher = less stable) value is on record for I156V
-- reply 0.76

-- ask Tell us which ddG of mutation (higher = less stable) value is on record for S138A
-- reply 1.94
